test system: L1210 leukemia ip in BDF1 mice, survival T/C; experiment: NCI In Vivo Anticancer Drug Screen. Data for tumor model L1210 Leukemia (intraperitoneal) in B6D2F1 (BDF1) mice; details: endpoint: mean survival time; dose: 100.0 mg/kg/injection; schedule: Q01DX009 (ip); vehicle: Klucel (hydroxypropylcellulose) (HPC); higher = longer survival
Toxic doses and inconclusive results are not listed.
So I've got a bunch of molecules here, and I need their T/C values.

molecule=CCCCN(CCCC)c1ccc(/C=C/c2ccncc2)cc1 targetundertest="L1210 leukemia ip in BDF1 mice, survival T/C" reportedresult="93 % of control"
molecule="CCCOCC(O)CNCCN (centres undefined)" targetundertest="L1210 leukemia ip in BDF1 mice, survival T/C" reportedresult="98 % of control"
molecule=O=P(Cc1ccccc1)(Oc1ccccc1)Oc1ccccc1 targetundertest="L1210 leukemia ip in BDF1 mice, survival T/C" reportedresult="91 % of control"
molecule="CSc1ncc2ncn(C3OC(CO)C(O)C3O)c2n1 (centres undefined)" targetundertest="L1210 leukemia ip in BDF1 mice, survival T/C" reportedresult="91 % of control"
molecule="O=C1Nc2ccc(Cl)cc2C(c2ccccc2)=NC1O (centres undefined)" targetundertest="L1210 leukemia ip in BDF1 mice, survival T/C" reportedresult="98 % of control"

Could I get T/C for every one of these entries?
1. Cc1ccc(N=Cc2ccc3c(c2)OCO3)cc1
2. O=C(O)CCC(NC(=O)c1ccc(Cc2ccc(NC(=O)OCc3ccccc3)cc2)cc1)C(=O)O (centres undefined)
3. NS(=O)(=O)c1ccc(NC(=O)Nc2cccc(C(F)(F)F)c2)cc1
4. COc1cc([N+](=O)[O-])ccc1NC(=O)Oc1ccc(-c2ccccc2)cc1Cl

1. 91 % of control
2. 96 % of control
3. 97 % of control
4. 93 % of control

Take each entry in turn and give its T/C.
1. COc1cc(CCNC(=O)Cc2ccc(OCc3ccccc3)cc2)ccc1OCc1ccccc1
2. CCN(CC)c1ccc(Cc2cc(O)c3c(c2O)C(=O)c2ccccc2C3=O)cc1

1. 89 % of control
2. 104 % of control

Give T/C for each of the items listed below.
1. COC1/C=C/OC2(C)Oc3c(C)c(O)c4c(O)c(c(/C=N/N5C(C)CN(Cc6ccccc6)CC5C)c(O)c4c3C2=O)NC(=O)C(C)=C/C=C/C(C)C(O)C(C)C(O)C(C)C(OC(C)=O)C1C (centres undefined)
2. Nc1nc(CCl)nc(Nc2ccccc2)n1
3. Clc1ccc2c(c1)/C(=C/c1cccnc1)c1cc(Cl)cc(Cl)c1-2
4. Cc1cc(OC(=O)/C=C/C(=O)Oc2cc(C)c(Cl)c(C)c2)cc(C)c1Cl
5. CN(C)c1ncc(C(N)=O)cn1

["93 % of control", "105 % of control", "93 % of control", "97 % of control", "97 % of control"]

Each molecule below has a reported value. Please supply its T/C.
1. CS(=O)(=O)c1nnc(-c2ccccc2)s1
2. S=C(N/N=C/c1ccccn1)NC1CC2C=CC1C2 (centres undefined)

["97 % of control", "100 % of control"]

I'm hoping you can list T/C for every molecule here, please.
1. ClCCN=Cc1ccc(Cl)cc1
2. CC(=O)OS(C)(=O)=O
3. OCCNc1nc2cc(Cl)ccc2c2ccc(Cl)cc12

["96 % of control", "100 % of control", "91 % of control"]

Need T/C for each of these molecules.
1. Cc1ccc(C)c(OC(=O)NC2CCCCC2)c1
2. COc1cccc(CC(=O)C(=O)O)c1
3. O=C(c1ccc(O)cc1O)c1cccc2ccccc12

1: 93 % of control; 2: 90 % of control; 3: 95 % of control

Origin of values: PubChem BioAssay AID248
